Field: melting point. Provide a value for each of the compounds that follow.

Consider the compound CC1(C)CCC(C)(C)c2nc(-c3ccc(-c4ccc(C(=O)O)cn4)[nH]3)cnc21 and give its recorded melting point.
278 °C (dec.)

Return reported melting point. Input compound: CC(C)c1ncc(-c2ccc(-c3ccc(C(=O)O)cc3)o2)nc1C(C)C
260 to 262 °C

Recall and state the measured melting point for CC1(C)CC(C)(C)c2nc(-c3cc(-c4ccc(C(=O)O)cc4)co3)cnc21 .
250 to 252 °C

Give melting point for Cc1[nH]c(-c2cnc3c(n2)C(C)(C)CCC3(C)C)cc1-c1ccc(C(=O)O)cc1
248 to 250 °C

Identify melting point associated with the compound Cc1sc(-c2cnc3c(n2)C(C)(C)CCC3(C)C)cc1-c1ccc(C(=O)O)cc1
215 to 217 °C

Give the value of melting point reported for the following: CCn1cc(-c2ccc(C(=O)O)cc2)cc1-c1cnc(C(C)C)c(C(C)C)n1
272 to 274 °C

Find the measured melting point of CC(C)c1ncc(-c2cc(-c3ccc(C(=O)O)cc3)co2)nc1C(C)C and report it.
215 to 218 °C

---

Exercise: for every item that follows, state its recorded melting point.

Provide one value: measured melting point of CC1(C)CCC(C)(C)c2nc(C(=O)Nc3ccc(C(=O)O)cc3)cnc21
257 to 259 °C

Item CC1(C)CC(C)(C)c2nc(-c3ccc(-c4ccc(C(=O)O)cc4)o3)cnc21 : provide melting point
238 to 240 °C

Query melting point for CC1(C)CC(C)(C)c2nc(-c3cc(-c4ccc(C(=O)O)cc4)cs3)cnc21
222 °C (dec.)

For the molecule Cc1oc(-c2cnc3c(n2)C(C)(C)CCC3(C)C)cc1-c1ccc(C(=O)O)cc1 , report melting point.
270 to 272 °C
